- Test system: LPS induced IL-6 secretion from whole blood
- procedure-details: Measurement of LPS Induced IL-6 Secretion from Whole Blood
- Type: cell-based
- condition: IL-6 by immunoassay, LPS 200 ng/ml, 24 hours
- Method: Activation of monocytic cells by agonists of toll-like receptors such as bacterial lipopolysaccharide (LPS) results in production of key inflammatory mediators including IL-6. […] Compounds to be tested are diluted to give a range of appropriate concentrations of which 1 μl of the diluted stocks is added to a 96 well plate. […] Concentration response curves for each compound was generated from the data and an IC50 value was calculated.
This listing pairs compounds with measured IC50.
quantity-kind: IC50

| sample-smiles | reported-value |
| --- | --- |
| CC(=O)N1c2ccc(-c3ccc(C(=O)NCCN(C)C)cc3)cc2[C@H](NC(=O)OC(C)C)C[C@@H]1C | 50.1 to 3160 nM |
| CC(=O)N1c2ccc(-c3ccc(C(=O)NCCO)nc3)cc2[C@H](Nc2cnc(C#N)cn2)C[C@@H]1C | 50.1 to 3160 nM |
| CC(=O)N1c2ccc(-c3ccc(C(=O)N4CCOCC4)cn3)cc2[C@H](Nc2ccc(Cl)cc2)C[C@@H]1C | 50.1 to 3160 nM |
| CC(=O)N1c2ccc(-c3ccc(C(=O)N4CCOCC4)cc3)cc2[C@H](Nc2ccc(C#N)cn2)C[C@@H]1C | 50.1 to 3160 nM |

These entries and their values trace back to patent US8993554B2.
